Target: ALK (Homo sapiens, UniProt Q9UM73)
Construct: host or cells: baculovirus expression system
Sequence (Q9UM73 19-1620): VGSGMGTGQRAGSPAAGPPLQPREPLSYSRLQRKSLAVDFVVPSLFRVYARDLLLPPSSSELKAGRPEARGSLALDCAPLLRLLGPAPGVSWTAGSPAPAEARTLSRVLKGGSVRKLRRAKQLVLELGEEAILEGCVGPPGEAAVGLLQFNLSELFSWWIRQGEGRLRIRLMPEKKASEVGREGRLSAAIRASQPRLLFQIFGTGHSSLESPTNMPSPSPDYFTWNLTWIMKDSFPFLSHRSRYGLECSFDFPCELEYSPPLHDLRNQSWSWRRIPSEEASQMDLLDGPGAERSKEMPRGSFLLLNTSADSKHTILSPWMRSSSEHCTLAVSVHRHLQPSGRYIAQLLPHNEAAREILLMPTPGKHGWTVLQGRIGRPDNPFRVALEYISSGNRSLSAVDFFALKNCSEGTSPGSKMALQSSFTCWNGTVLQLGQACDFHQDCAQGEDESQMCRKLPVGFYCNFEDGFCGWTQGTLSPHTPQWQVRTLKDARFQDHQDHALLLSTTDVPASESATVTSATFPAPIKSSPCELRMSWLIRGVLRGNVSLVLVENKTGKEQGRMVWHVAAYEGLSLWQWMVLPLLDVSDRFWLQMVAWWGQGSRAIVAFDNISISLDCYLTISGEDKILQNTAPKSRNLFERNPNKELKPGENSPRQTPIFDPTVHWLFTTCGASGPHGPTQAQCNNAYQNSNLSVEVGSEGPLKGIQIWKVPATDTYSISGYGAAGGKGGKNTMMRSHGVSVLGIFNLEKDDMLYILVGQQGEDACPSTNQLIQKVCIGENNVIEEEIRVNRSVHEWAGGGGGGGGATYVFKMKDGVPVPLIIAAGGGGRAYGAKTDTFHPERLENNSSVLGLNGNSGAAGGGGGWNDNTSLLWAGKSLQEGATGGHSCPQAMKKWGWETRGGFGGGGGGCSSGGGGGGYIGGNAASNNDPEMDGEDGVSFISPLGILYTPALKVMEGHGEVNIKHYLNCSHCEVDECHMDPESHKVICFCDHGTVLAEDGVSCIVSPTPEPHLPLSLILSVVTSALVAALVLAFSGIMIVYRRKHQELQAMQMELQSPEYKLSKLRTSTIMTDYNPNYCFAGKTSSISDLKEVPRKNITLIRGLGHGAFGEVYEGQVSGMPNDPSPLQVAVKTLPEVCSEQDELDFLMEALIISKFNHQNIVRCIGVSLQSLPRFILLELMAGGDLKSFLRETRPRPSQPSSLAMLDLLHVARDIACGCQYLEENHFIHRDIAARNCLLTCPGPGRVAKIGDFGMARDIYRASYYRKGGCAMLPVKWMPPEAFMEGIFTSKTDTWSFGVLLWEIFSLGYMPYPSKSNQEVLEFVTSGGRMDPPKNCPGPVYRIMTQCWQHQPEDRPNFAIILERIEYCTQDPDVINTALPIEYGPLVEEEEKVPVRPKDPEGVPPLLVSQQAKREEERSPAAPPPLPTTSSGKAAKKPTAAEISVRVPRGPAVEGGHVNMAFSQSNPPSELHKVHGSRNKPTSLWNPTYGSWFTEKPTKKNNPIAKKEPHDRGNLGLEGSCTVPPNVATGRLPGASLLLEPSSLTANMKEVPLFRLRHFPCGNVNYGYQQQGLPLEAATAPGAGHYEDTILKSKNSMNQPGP
Assay: ALK Kinase Assay (ELISA/TRF, PLC-γ substrate)
Format: biochemical
Details: ALK Kinase Inhibition; read-out: ALK Potency
Description: Briefly, each 96-well plate was coated with […] of 10 μg/mL substrate (phospholipase C-γ) in Tris-buffered saline (TBS). […] The reaction was initiated by adding enzyme (30 ng/ml ALK) and was allowed to proceed at 37° C. for 15 minutes. Detection of the phosphorylated product was performed by adding 100 μl/well of Eu—N1 labeled PT66 antibody (Perkin Elmer # AD0041). Data analysis was performed using ActivityBase (IDBS, Guilford, UK). […]
parameter: IC50

Q: Consider the compound CC(=O)Nc1cc(Nc2ncc3ccc(-c4ccc(S(C)(=O)=O)cc4)n3n2)ccc1C(C)(C)C [Example 326] and give its measured IC50.
A: > 10 µM

Q: Request: COc1ccccc1-c1ccc2cnc(Nc3ccc4c(c3OC)CCC(N3CCOCC3)CC4)nn12 (stereo not shown) [Example 1452]
A: < 0.1 µM

Q: Request: COc1ccccc1-c1ccc2cnc(Nc3ccc(N4CCCC(N5CCN(C)CC5)C4)cc3)nn12 (stereo not shown) [Example 348]
A: < 0.1 µM

Q: Request: COc1ccccc1-c1cc(Br)n2nc(Nc3ccc(N4CCN(C)CC4)cc3)ncc12 [Example 102]
A: > 10 µM

----------
Quick list: pIC50 per entry.
Target: ALK (Homo sapiens)
Construct: host or cells: baculovirus expression system
Assay: ALK Kinase Assay (ELISA/TRF, PLC-γ substrate)
Type: biochemical
Settings: ALK kinase inhibition, 1 μM ATP; read-out: ALK Potency
pIC50: −log10 of the molar value.

Solved cases (5 shown):
COc1ccccc1-c1ccc2cnc(Nc3ccc4c(c3)NC(=O)CC4)nn12 = 6.00 to 7.00
COc1cc(C2=CCN(CC(N)=O)CC2)ccc1Nc1ncc2ccc(-c3ccccc3OC)n2n1 = > 7.00
CC(C)CCn1cc(-c2ccc3cnc(Nc4cccc(N5CCN(C)CC5)c4)nn23)cn1 = 5.00 to 6.00
COc1cc(C2CCN(CCO)CC2)ccc1Nc1ncc2ccc(-c3cccc4c3OCC4)n2n1 = > 7.00
COc1ccccc1-c1ccc2cnc(Nc3ccc(-c4cccnc4)cc3)nn12 = 5.00 to 6.00

Q: Consider the molecule CN1CCC(c2ccc(Nc3ncc4ccc(-c5cccnc5)n4n3)cc2)CC1 and give its measured pIC50.
A: 6.00 to 7.00

Q: Request: CS(=O)(=O)Nc1ccccc1-c1ccc2cnc(Nc3cccc(OCCN4CCOCC4)c3)nn12
A: 5.00 to 6.00

Q: Request: COc1cc(C2CCN(C)CC2C)ccc1Nc1ncc2ccc(-c3ccccc3OC)n2n1 (racemic)
A: > 7.00

Q: Request: COc1ccc(-c2ccc3cnc(Nc4ccc(C5CCN(CC(N)=O)CC5)c(NC(C)=O)c4)nn23)cn1
A: 6.00 to 7.00

Q: Request: COc1cc2c(cc1Nc1ncc3ccc(-c4cccc(S(=O)(=O)NC(C)(C)C)c4)n3n1)CCN(CCO)CC2
A: > 7.00

Q: Request: CC(C)C(=O)Nc1cccc(Nc2ncc3ccc(-c4cnn(C)c4)n3n2)c1
A: 5.00 to 6.00

Q: Request: COc1cc(N2CCN(C[C@@H](O)CO)CC2)ccc1Nc1ncc2ccc(-c3cc(Cl)ccc3OC)n2n1
A: > 7.00

Q: Request: COc1ccc(-c2ccc3cnc(Nc4ccc(C5CCN(CC(N)=O)CC5)cc4OC)nn23)c(N(C)S(C)(=O)=O)c1
A: > 7.00
